Catalogue of TGI values
Test system: HCT-15 colon
Assay: NCI tumour cell line growth inhibition, 48 h

IN: Please provide the recorded TGI for CC1(C)Oc2ccccc2OC1O (stereo unspecified) , tested on HCT-15 colon.
OUT: > 100 µM

IN: Please provide the recorded TGI for C[C@@H](O)CCC(=O)c1ccoc1 , tested on HCT-15 colon.
OUT: > 100 µM

IN: Please provide the recorded TGI for COc1ccc(/C(Cl)=C(\CN(C)C)c2ccc(OC)c(OC)c2)cc1OC , tested on HCT-15 colon.
OUT: > 100 µM

IN: Please provide the recorded TGI for Cc1cc(Cl)ccc1OCc1nn2c(CCCCc3nnc4sc(COc5ccc(Cl)cc5C)nn34)nnc2s1 , tested on HCT-15 colon.
OUT: > 100 µM
